Reported AUC(0-t) is given for each of the following molecules.
- test-details: in vivo
- reported-conditions: iv, 1 mg/kg
property: AUC(0-t) (ng·h/mL)

| compound-structure-string | property | assay-result |
| --- | --- | --- |
| [2H]C([2H])([2H])n1cc2cc(Nc3nc(=O)n(Cc4cscn4)c(=O)n3Cc3cc(F)c(F)c(F)c3)c(Cl)cc2n1 | AUC(0-t) | 9880 |
| [2H]C([2H])([2H])n1cc2cc(Nc3nc(=O)n(Cc4ccon4)c(=O)n3Cc3cc(F)c(F)cc3F)c(Cl)cc2n1 | AUC(0-t) | 25400 |
| [2H]c1c2cc(Nc3nc(=O)n(Cc4ccon4)c(=O)n3Cc3cc(F)c(F)cc3F)c(Cl)cc2nn1C | AUC(0-t) | 21400 |
| [2H]C([2H])([2H])n1cc2cc(Nc3nc(=O)n(Cc4ccon4)c(=O)n3Cc3cc(F)c(F)c(F)c3)c(Cl)cc2n1 | AUC(0-t) | 26500 |
| Cn1cc2cc(Nc3nc(=O)n(Cc4cocn4)c(=O)n3Cc3cc(F)c(F)cc3F)c(Cl)cc2n1 | AUC(0-t) | 7790 |
| O=c1nc(Nc2cc3cn(CCO)nc3cc2Cl)n(Cc2cc(F)c(F)cc2F)c(=O)n1Cc1cscn1 | AUC(0-t) | 5670 |
| [2H]C([2H])([2H])n1cc2cc(Nc3nc(=O)n(Cc4cscn4)c(=O)n3Cc3cc(F)c(F)cc3F)c(Cl)cc2n1 | AUC(0-t) | 7040 |

====

Reported AUC(0-t) is given for each of the following compounds.
- test-details: in vivo
- reported-conditions: po, 10 mg/kg

| compound | AUC(0-t) [µg·h/mL] |
| --- | --- |
| [2H]c1c2cc(Nc3nc(=O)n(Cc4ccon4)c(=O)n3Cc3cc(F)c(F)cc3F)c(Cl)cc2nn1C [Compound 107] | 209 |
| O=c1nc(Nc2cc3cn(CCO)nc3cc2Cl)n(Cc2cc(F)c(F)cc2F)c(=O)n1Cc1cscn1 [Compound 97] | 7.66 |
| [2H]C([2H])([2H])n1cc2cc(Nc3nc(=O)n(Cc4ccon4)c(=O)n3Cc3cc(F)c(F)c(F)c3)c(Cl)cc2n1 [Compound 41] | 234 |
| [2H]C([2H])([2H])n1cc2cc(Nc3nc(=O)n(Cc4ccon4)c(=O)n3Cc3cc(F)c(F)cc3F)c(Cl)cc2n1 [Compound 17] | 189 |
| [2H]C([2H])([2H])n1cc2cc(Nc3nc(=O)n(Cc4cscn4)c(=O)n3Cc3cc(F)c(F)cc3F)c(Cl)cc2n1 [Compound 16] | 139 |
| Cn1cc2cc(Nc3nc(=O)n(Cc4cocn4)c(=O)n3Cc3cc(F)c(F)cc3F)c(Cl)cc2n1 [Compound 26] | 14.1 |
| [2H]C([2H])([2H])n1cc2cc(Nc3nc(=O)n(Cc4cscn4)c(=O)n3Cc3cc(F)c(F)c(F)c3)c(Cl)cc2n1 [Compound 40] | 134 |

====

Reported log10 of AUC(0-t) is given for each of the following compounds.
- test-details: in vivo
- reported-conditions: crab-eating monkey, intravenous, 1 mg/kg, plasma, read-out: Intravenous injection AUClast
property: log10 of AUC(0-t) (log10 of the value in ng·h/mL)

| compound-structure-string | assay-result |
| --- | --- |
| [2H]C([2H])([2H])n1cc2cc(Nc3nc(=O)n(Cc4cscn4)c(=O)n3Cc3cc(F)c(F)c(F)c3)c(Cl)cc2n1 | 4.56 |
| [2H]C([2H])([2H])n1cc2cc(Nc3nc(=O)n(Cc4ccon4)c(=O)n3Cc3cc(F)c(F)cc3F)c(Cl)cc2n1 | 4.61 |
| [2H]C([2H])([2H])n1cc2cc(Nc3nc(=O)n(Cc4cocn4)c(=O)n3Cc3cc(F)c(F)cc3F)c(Cl)cc2n1 | 3.69 |
| O=c1nc(Nc2cc3cn(CCO)nc3cc2Cl)n(Cc2cc(F)c(F)cc2F)c(=O)n1Cc1ccon1 | 3.69 |
| [2H]C([2H])([2H])n1cc2cc(Nc3nc(=O)n(Cc4ccon4)c(=O)n3Cc3cc(F)c(F)c(F)c3)c(Cl)cc2n1 | 4.61 |
| [2H]C([2H])([2H])n1cc2cc(Nc3nc(=O)n(Cc4cscn4)c(=O)n3Cc3cc(F)c(F)cc3F)c(Cl)cc2n1 | 3.57 |
